Data origin, for the record: PubChem BioAssay (NCATS)

Assay: Primary qHTS to identify inhibitors of SARS-CoV-2 cell entry (AID 1645846)
Conditions: SARS-CoV-2 pseudovirus cell entry assay, luminescence; at 57.1 µM (top of the series) unless noted
Records with an inconclusive call do not appear. Peptide text beside a SMILES is read from it.
EXPERIMENTAL ENDPOINT: activity change, negative = inhibition (%)

[[record]]
compound = "CSCCNc1nc(SCCC(F)(F)F)nc2c1ncn2[C@@H]1O[C@H](COP(=O)(O)OP(=O)(O)C(Cl)(Cl)P(=O)(O)O)[C@@H](O)[C@H]1O"
experimental_endpoint = "activity change, negative = inhibition"
readout_value = -28.8

[[record]]
compound = "CCc1cnn2c(NCc3ccc[n+]([O-])c3)cc(N3CCCC[C@H]3CCO)nc12"
experimental_endpoint = "activity change, negative = inhibition"
readout_value = -54

[[record]]
compound = "Cc1cc(-c2ccc(N=Nc3ccc4c(S(=O)(=O)O)cc(S(=O)(=O)O)c(N)c4c3O)c(C)c2)ccc1N=Nc1ccc2c(S(=O)(=O)O)cc(S(=O)(=O)O)c(N)c2c1O"
experimental_endpoint = "activity change, negative = inhibition"
readout_value = -2.58

[[record]]
compound = "c1cc(Nc2cc(C3CC3)[nH]n2)nc(Nc2ccc3nc[nH]c3c2)n1"
experimental_endpoint = "activity change, negative = inhibition"
readout_value = -94.9

[[record]]
compound = "C[C@H](NC(=O)CCC(F)(F)F)C(=O)N[C@@H]1C(=O)N(CCO)c2ncccc2-c2ccccc21"
experimental_endpoint = "activity change, negative = inhibition"
readout_value = -2.66

[[record]]
compound = "CC(=O)N1CCC[C@H]1C(=O)N[C@@H](Cc1cnc[nH]1)C(=O)N[C@@H](CO)C(=O)N[C@@H](CS)C(=O)N[C@@H](CC(N)=O)C(N)=O (Ac-PHSCN-NH2)"
experimental_endpoint = "activity change, negative = inhibition"
readout_value = -1.41

[[record]]
compound = "CCn1c(N)c(C(=O)NC)c(=O)c2ccc(C#CC(C)(O)COC)nc21 (configuration not stated)"
experimental_endpoint = "activity change, negative = inhibition"
readout_value = 2.21

[[record]]
compound = "Cc1c(NC(=O)c2cc(C(N)=O)nc3cc(F)ccc23)c(C(F)(F)F)nn1Cc1ccc(C#N)cc1"
experimental_endpoint = "activity change, negative = inhibition"
readout_value = -65.9

[[record]]
compound = "Cc1ccc([N+](=O)[O-])cc1S(=O)(=O)N(C)/N=C/c1cnc2ccc(Br)cn12"
experimental_endpoint = "activity change, negative = inhibition"
readout_value = -94.8

[[record]]
compound = "CCN(CC)CCS(=O)(=O)[C@@H]1CCN2C(=O)c3coc(n3)CC(=O)C[C@H](O)/C=C(C)/C=C/CNC(=O)/C=C/[C@@H](C)[C@@H](C(C)C)OC(=O)[C@@H]12"
experimental_endpoint = "activity change, negative = inhibition"
readout_value = -29

[[record]]
compound = "Cc1cc(-c2ccc(N=Nc3c(S(=O)(=O)O)cc4cc(S(=O)(=O)O)cc(N)c4c3O)c(C)c2)ccc1N=Nc1c(S(=O)(=O)O)cc2cc(S(=O)(=O)O)cc(N)c2c1O"
experimental_endpoint = "activity change, negative = inhibition"
readout_value = 2.81

[[record]]
compound = "CO/N=C(/C(=O)N[C@@H]1C(=O)N2C(C(=O)OC(C)OC(C)=O)=C(COC(N)=O)CS[C@H]12)c1ccco1 (some centres not stated)"
experimental_endpoint = "activity change, negative = inhibition"
readout_value = -14.5

[[record]]
compound = "CO[C@@H](COC(N)=O)C1=C(N2CC2)C(=O)C(C)=C(N2CC2)C1=O"
experimental_endpoint = "activity change, negative = inhibition"
readout_value = -18.1

[[record]]
compound = "CC(C)OC(=O)[C@H](C)N[P@@](=O)(OC[C@H]1O[C@@H](n2ccc(=O)[nH]c2=O)[C@](C)(F)[C@@H]1O)Oc1ccccc1"
experimental_endpoint = "activity change, negative = inhibition"
readout_value = -25.3

[[record]]
compound = "CC(C)OC(=O)[C@H](C)N[P@](=O)(CO[C@H](C)Cn1cnc2c(N)ncnc21)Oc1ccccc1"
experimental_endpoint = "activity change, negative = inhibition"
readout_value = -96.1

[[record]]
compound = "COc1ncc(-c2ccc3c(Nc4cc(Oc5cc(F)cc(F)c5)cc(C(=O)O)c4)c(S(=O)(=O)NC4CC4)cnc3c2)c(OC)n1"
experimental_endpoint = "activity change, negative = inhibition"
readout_value = -25

[[record]]
compound = "Cc1c(-c2cnccn2)ssc1=S"
experimental_endpoint = "activity change, negative = inhibition"
readout_value = 3.56

[[record]]
compound = "CC(Oc1ccccc1)C(=O)N[C@@H]1C(=O)N2[C@@H]1SC(C)(C)[C@@H]2C(=O)O (some centres not stated)"
experimental_endpoint = "activity change, negative = inhibition"
readout_value = -18.1

[[record]]
compound = "COCCN1CCN(Cc2ccc(-c3n[nH]c4c3C(=O)c3c(NC(=O)NN5CCOCC5)cccc3-4)cc2)CC1"
experimental_endpoint = "activity change, negative = inhibition"
readout_value = -93.4

[[record]]
compound = "CO[C@H]1O[C@@H]2O[C@@]3(C)CC[C@H]4[C@H](C)CC[C@@H]([C@@H]1C)[C@@]24OO3"
experimental_endpoint = "activity change, negative = inhibition"
readout_value = -7.86

[[record]]
compound = "CCCCCCO[C@@H](C)c1cccc(-c2csc(NC(=O)c3cc(Cl)c(/C=C(\\C)C(=O)O)c(Cl)c3)n2)c1OC"
experimental_endpoint = "activity change, negative = inhibition"
readout_value = -33.5

[[record]]
compound = "O=C(O)c1cc(=O)c2c3nc4ccccc4oc-3cc(=O)c2[nH]1"
experimental_endpoint = "activity change, negative = inhibition"
readout_value = -16.2

